Reported Therapeutic ratio TR by item:
System: Leukemia L1210
Assay: Activity against Leukemia L1210, oral, increase in life span of mice
Assay type: in vivo, female mice (BDF1 family)
Details: oral; O.D./ILS30

compound: CCCCOC1OC(CO)C(O)C(N(CC(C)OC)C(=O)N(CCCl)N=O)C1O (stereo not drawn)
experimentalTarget: Leukemia L1210
Therapeutic ratio TR: 14.3
--
compound: COCCN(C(=O)N(CCCl)N=O)C1C(O)C(CO)OC(OC2CCCCC2)C1O (stereo not drawn)
experimentalTarget: Leukemia L1210
Therapeutic ratio TR: 16.8
--
compound: CC(C)CN(C[C@H]1O[C@H](OCC2CCCO2)[C@@H](O)[C@@H](O)[C@@H]1O)C(=O)N(CCCl)N=O (stereo partly drawn)
experimentalTarget: Leukemia L1210
Therapeutic ratio TR: 23.8
--
compound: CO[C@H]1O[C@H](CNC(=O)N(CCCl)N=O)[C@@H](O)[C@H](O)[C@H]1O [Compound 6MCαG, reference compound]
experimentalTarget: Leukemia L1210
Therapeutic ratio TR: 6.86
--
compound: COCCN(C(=O)N(CCCl)N=O)C1C(OC(C)COC)OC(CO)C(O)C1O (stereo not drawn)
experimentalTarget: Leukemia L1210
Therapeutic ratio TR: 16.8
--
compound: COCC(C)N(C[C@H]1O[C@H](OCC(C)C)[C@H](O)[C@@H](O)[C@@H]1O)C(=O)N(CCCl)N=O (stereo partly drawn)
experimentalTarget: Leukemia L1210
Therapeutic ratio TR: 27.2
--
compound: COCCCN(C[C@H]1O[C@H](OCC(C)C)[C@H](O)[C@H]1O)C(=O)N(CCCl)N=O
experimentalTarget: Leukemia L1210
Therapeutic ratio TR: 12.8
--
compound: CCOCCO[C@H]1O[C@H](CO)[C@@H](O)[C@H](O)[C@H]1N(CCC(C)(C)C)C(=O)N(CCCl)N=O
experimentalTarget: Leukemia L1210
Therapeutic ratio TR: 20.3
--
compound: CC(C)CN(C[C@@H]1O[C@@H](OC2CCCCC2)[C@H](O)[C@@H]1O)C(=O)N(CCCl)N=O
experimentalTarget: Leukemia L1210
Therapeutic ratio TR: 16.2
--
compound: CCOCCN(C(=O)N(CCCl)N=O)C1C(OC2CCCCC2)OC(CO)C(O)C1O (stereo not drawn)
experimentalTarget: Leukemia L1210
Therapeutic ratio TR: 18.2
--
compound: CC(C)CN(C[C@H]1O[C@@H](OCC2CCCO2)[C@H](O)[C@@H]1O)C(=O)N(CCCl)N=O (stereo partly drawn)
experimentalTarget: Leukemia L1210
Therapeutic ratio TR: 14.2
--
compound: CCOCCN(C(=O)N(CCCl)N=O)[C@@H]1[C@@H](O)[C@@H](OC2CCCCC2)OC[C@H]1O
experimentalTarget: Leukemia L1210
Therapeutic ratio TR: 16.4
--
compound: COC(C)CN(C(=O)N(CCCl)N=O)[C@H]1CO[C@@H](OCC(C)C)[C@H](O)[C@H]1O (stereo partly drawn)
experimentalTarget: Leukemia L1210
Therapeutic ratio TR: 16.7
--
compound: CCOCCO[C@H]1O[C@H](CN(CC(C)C)C(=O)N(CCCl)N=O)[C@H](O)[C@H](O)[C@H]1O
experimentalTarget: Leukemia L1210
Therapeutic ratio TR: 23.2
--
compound: COCC(C)N(C(=O)N(CCCl)N=O)[C@H]1[C@@H](O)[C@@H](CO)O[C@H](OCC(C)C)[C@@H]1O (stereo partly drawn)
experimentalTarget: Leukemia L1210
Therapeutic ratio TR: 15.6
--
compound: CCCCO[C@H]1O[C@H](CO)[C@H](N(C(=O)N(CCCl)N=O)C(C)COC)[C@H](O)[C@H]1O (stereo partly drawn)
experimentalTarget: Leukemia L1210
Therapeutic ratio TR: 14.3
--
compound: COCCCO[C@@H]1O[C@H](CN(CC(C)C)C(=O)N(CCCl)N=O)[C@@H](O)[C@H]1O
experimentalTarget: Leukemia L1210
Therapeutic ratio TR: 15.0
--
compound: COC(C)CN(C(=O)N(CCCl)N=O)[C@@H]1[C@@H](OCC(C)C)OC[C@@H](O)[C@H]1O (stereo partly drawn)
experimentalTarget: Leukemia L1210
Therapeutic ratio TR: 16.5
--
compound: O=NN(CCCl)C(=O)N[C@@H]1O[C@H](CO)[C@@H](O)[C@H](O)[C@H]1O [GANU, reference compound]
experimentalTarget: Leukemia L1210
Therapeutic ratio TR: 2.54
--
compound: CCCCO[C@H]1O[C@H](CN(CC(C)OC)C(=O)N(CCCl)N=O)[C@@H](O)[C@H](O)[C@H]1O (stereo partly drawn)
experimentalTarget: Leukemia L1210
Therapeutic ratio TR: 23.0
--
compound: O=NN(CCCl)C(=O)N(C1CCCCC1)C1C(OCC2CCCO2)OC(CO)C(O)C1O (stereo not drawn)
experimentalTarget: Leukemia L1210
Therapeutic ratio TR: 17.2

---

Assay: Diuretic activity, acute sodium loaded mouse screening test
Type: in vivo, male mice
Conditions: 50 mg/kg oral in 1% saline
As shown below, each of these compounds has a reported Urine volume value.

compound: COCCN(C[C@H]1O[C@H](OC(C)COC)[C@H](O)[C@@H](O)[C@@H]1O)C(=O)N(CCCl)N=O (some centres unmarked)
unitsText: ml/kg/5 hrs.
Urine volume: 8.8
//
compound: CCOCCCN(C[C@H]1O[C@H](OC(C)CC)[C@H](O)[C@@H](O)[C@@H]1O)C(=O)N(CCCl)N=O (some centres unmarked)
unitsText: ml/kg/5 hrs.
Urine volume: 9.1
//
compound: COCCN(C[C@H]1O[C@H](OC2CCCCC2)[C@H](O)[C@@H](O)[C@@H]1O)C(=O)N(CCCl)N=O
unitsText: ml/kg/5 hrs.
Urine volume: 9.2
//
compound: COCC(C)N(C[C@H]1O[C@H](OCC(C)C)[C@H](O)[C@@H](O)[C@H]1O)C(=O)N(CCCl)N=O (some centres unmarked)
unitsText: ml/kg/5 hrs.
Urine volume: 8.8
//
compound: CCOCCCN(C(=O)N(CCCl)N=O)C1C(OC2CCCCC2)OC(CO)C(O)C1O (centres unmarked)
unitsText: ml/kg/5 hrs.
Urine volume: 8.8
//
compound: CC(C)CO[C@H]1O[C@H](CN(CC2CCCO2)C(=O)N(CCCl)N=O)[C@@H](O)[C@H](O)[C@H]1O (some centres unmarked)
unitsText: ml/kg/5 hrs.
Urine volume: 10.2
//
compound: COCCN(C[C@H]1O[C@H](OCC(C)C)[C@H](O)[C@@H](O)[C@@H]1O)C(=O)N(CCCl)N=O
unitsText: ml/kg/5 hrs.
Urine volume: 9.2
//
compound: COC(C)CN(C(=O)N(CCCl)N=O)C1C(O)C(CO)OC(OC2CCCCC2)C1O (centres unmarked)
unitsText: ml/kg/5 hrs.
Urine volume: 10.2

---

Test system: Leukemia L1210
Assay: Activity against Leukemia L1210, intraperitoneal, increase in life span of mice
Format: in vivo, female mice (BDF1 family)
Conditions: Mus musculus, L1210, ip, ip once a day for 5 successive days; daily dosage giving maximum increase of life span; read-out: O.D. (optimum dosage)
Listed here are compounds together with their documented ED (maximum ILS).

compound: CC(C)CN(C(=O)N(CCCl)N=O)C1C(OC2CCCCC2)OC(CO)C(O)C1O (stereo not shown)
experimentalTarget: Leukemia L1210
unitsText: mg/kg
ED (maximum ILS): 200
//
compound: CC(C)CN(C[C@H]1O[C@H](OCc2ccccc2)[C@H](O)[C@@H](O)[C@@H]1O)C(=O)N(CCCl)N=O
experimentalTarget: Leukemia L1210
unitsText: mg/kg
ED (maximum ILS): 150
//
compound: CC(C)CO[C@@H]1O[C@H](CN(CC(C)(C)C)C(=O)N(CCCl)N=O)[C@@H](O)[C@H](O)[C@H]1O
experimentalTarget: Leukemia L1210
unitsText: mg/kg
ED (maximum ILS): 170
//
compound: CO[C@H]1O[C@H](CO)[C@@H](O)[C@H](O)[C@H]1NC(=O)N(CCCl)N=O [Compound 2MCαG, reference compound]
experimentalTarget: Leukemia L1210
unitsText: mg/kg
ED (maximum ILS): 15.2

---

Tested on: Leukemia L1210
Test: Activity against Leukemia L1210, intraperitoneal, increase in life span of mice
Format: in vivo, female mice (BDF1 family)
Conditions: Mus musculus, L1210, ip, ip once a day for 5 successive days; daily dosage giving maximum increase of life span; read-out: O.D. (optimum dosage)
Below, each entry is listed alongside its reported ED (maximum ILS).

molecule: CCOCCO[C@H]1O[C@H](CO)[C@H](N(CC(C)C)C(=O)N(CCCl)N=O)[C@H](O)[C@H]1O [Compound 131]
unitsText: mg/kg
ED (maximum ILS): 160

molecule: CCCCO[C@H]1O[C@H](CN(CCC)C(=O)N(CCCl)N=O)[C@@H](O)[C@H](O)[C@H]1O [Compound 5]
unitsText: mg/kg
ED (maximum ILS): 100

molecule: COCC(C)N(C(=O)N(CCCl)N=O)C1C(O)C(CO)OC(OC2CCCCC2)C1O (centres unmarked) [Compound 87]
unitsText: mg/kg
ED (maximum ILS): 200

molecule: COCC(C)N(C[C@H]1O[C@H](OCC(C)C)[C@H](O)[C@@H](O)[C@H]1O)C(=O)N(CCCl)N=O (some centres unmarked) [Compound 110]
unitsText: mg/kg
ED (maximum ILS): 200

molecule: O=NN(CCCl)C(=O)N(CCCCO)C1C(OC2CCCCC2)OC(CO)C(O)C1O (centres unmarked) [Compound 66]
unitsText: mg/kg
ED (maximum ILS): 200

molecule: COCC(C)N(C[C@H]1O[C@H](OC2CCCC2)[C@H](O)[C@@H](O)[C@@H]1O)C(=O)N(CCCl)N=O (some centres unmarked) [Compound 172]
unitsText: mg/kg
ED (maximum ILS): 180

molecule: O=NN(CCCl)C(=O)N(CCC1CCCC1)C[C@H]1O[C@H](OC2CCCCC2)[C@H](O)[C@@H](O)[C@@H]1O [Compound 45]
unitsText: mg/kg
ED (maximum ILS): 180

molecule: COc1ccc(CN(C[C@H]2O[C@H](OCC(C)C)[C@H](O)[C@@H](O)[C@@H]2O)C(=O)N(CCCl)N=O)cc1 [Compound 21]
unitsText: mg/kg
ED (maximum ILS): 200
